Target chain: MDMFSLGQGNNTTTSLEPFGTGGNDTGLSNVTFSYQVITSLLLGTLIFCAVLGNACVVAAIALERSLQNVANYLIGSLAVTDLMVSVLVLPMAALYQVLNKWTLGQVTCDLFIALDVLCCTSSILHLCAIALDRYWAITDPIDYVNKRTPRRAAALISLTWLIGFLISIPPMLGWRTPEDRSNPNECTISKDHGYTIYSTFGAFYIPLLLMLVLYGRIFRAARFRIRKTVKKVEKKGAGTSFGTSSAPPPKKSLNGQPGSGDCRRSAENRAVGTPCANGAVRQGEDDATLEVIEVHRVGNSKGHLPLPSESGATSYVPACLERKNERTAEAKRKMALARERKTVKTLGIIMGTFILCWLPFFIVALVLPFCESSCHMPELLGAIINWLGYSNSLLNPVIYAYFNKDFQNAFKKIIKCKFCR
quantity: IC50 (µM)

A. CNS(=O)(=O)Cc1ccc2[nH]cc(CCN(C)C)c2c1
B. Fc1cccc(CCN2CCN(CCCc3c[nH]c4ccc(-n5cnnc5)cc34)CC2)c1
**Q:** Could you check which of A and B has a smaller value for IC50? Answer by stating the label of the chosen item.
**A:** B

----------
- assayedTarget: 5-hydroxytryptamine receptor 1B (Homo sapiens, UniProt P28222)
- Sequence (P28222 whole entry): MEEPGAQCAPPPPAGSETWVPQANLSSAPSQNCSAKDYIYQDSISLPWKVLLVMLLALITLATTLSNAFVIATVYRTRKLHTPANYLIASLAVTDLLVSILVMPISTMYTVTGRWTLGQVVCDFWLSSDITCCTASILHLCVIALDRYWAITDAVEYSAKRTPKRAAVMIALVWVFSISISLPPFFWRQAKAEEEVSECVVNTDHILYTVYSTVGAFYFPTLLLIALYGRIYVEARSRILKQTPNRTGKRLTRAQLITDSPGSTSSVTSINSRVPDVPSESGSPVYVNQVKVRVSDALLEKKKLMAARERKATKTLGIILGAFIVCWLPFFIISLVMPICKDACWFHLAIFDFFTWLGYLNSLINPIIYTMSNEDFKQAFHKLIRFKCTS
- testName: Displacement of [3H]5-HT from human 5-hydroxytryptamine 1B receptor expressed in CHO cells
- Type: cell-based
pIC50: −log10 of the molar value.
quantity: pIC50

Fc1ccc(CCN2CCN(CCCc3c[nH]c4ccc(-n5cnnc5)cc34)CC2)cc1    6.92
Fc1cccc(CCN2CCN(CCCc3c[nH]c4ccc(-n5cnnc5)cc34)CC2)c1    7.12
Fc1ccccc1CCN1CCN(CCCc2c[nH]c3ccc(-n4cnnc4)cc23)CC1    7.00

----------
- assayedTarget: 5-hydroxytryptamine receptor 1D (Homo sapiens)
- Sequence (P28221 whole entry): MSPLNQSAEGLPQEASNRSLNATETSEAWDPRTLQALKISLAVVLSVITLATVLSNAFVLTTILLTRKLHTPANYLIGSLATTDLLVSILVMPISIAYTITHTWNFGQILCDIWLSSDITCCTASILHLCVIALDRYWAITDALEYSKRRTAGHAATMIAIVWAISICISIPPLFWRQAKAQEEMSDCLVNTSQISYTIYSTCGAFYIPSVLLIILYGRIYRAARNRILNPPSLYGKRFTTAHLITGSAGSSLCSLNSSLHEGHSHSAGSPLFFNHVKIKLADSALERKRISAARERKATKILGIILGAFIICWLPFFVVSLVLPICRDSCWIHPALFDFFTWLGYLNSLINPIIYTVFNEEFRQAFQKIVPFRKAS
- testName: Stimulation of [35S]GTP-gamma-S, binding in CHO cells expressing 5-hydroxytryptamine 1D receptor
- Type: functional, cell-based
quantity: EC50 (nM)

c1ccc(CCN2CCN(CCCc3c[nH]c4ccc(-n5cnnc5)cc34)CC2)cc1    0.9
CC(=O)Nc1cccc(CCN2CCN(CCCc3c[nH]c4ccc(-n5cnnc5)cc34)CC2)c1    1.6
Fc1ccc(CCN2CCN(CCCc3c[nH]c4ccc(-n5cnnc5)cc34)CC2)cc1    1.5

A. Fc1cc(F)cc(CCN2CCN(CCCc3c[nH]c4ccc(-n5cnnc5)cc34)CC2)c1
B. Fc1ccccc1CCN1CCN(CCCc2c[nH]c3ccc(-n4cnnc4)cc23)CC1
**Q:** When their EC50 values are compared, which is larger, A or B ? Answer by stating the label of the chosen item.
**A:** B
(B: 1.5 nM, A: 0.6 nM)
